- EXPERIMENT_NOTES: Mouse pharmacokinetic test
- Type: in vivo, CD-1 mice
- APPLIED_CONDITIONS: male, CD-1, plasma, oral gavage 10 mg/kg
OBSERVABLE: Tmax (min)

COMPOUND: COc1ccc([C@@H]2CN(C(=O)[C@@H](O)CO)C[C@@]2(C)[C@@H](C)O)cc1OC1CN(c2ccc(C)cn2)C1 [Positive control compound, reference compound]
OBSERVABLE: Tmax
MEASURED_NUMBER: 15

---

- EXPERIMENT_NOTES: Mouse pharmacokinetic test
- Assay type: in vivo, CD-1 mice
- APPLIED_CONDITIONS: male, CD-1, plasma, oral gavage 10 mg/kg
OBSERVABLE: AUC(0-t)

COMPOUND: CCOc1ccc(N2CC(Oc3cc([C@@H]4CN(C(=O)[C@@H](O)CO)C[C@@]4(C)[C@@H](C)O)ccc3OC)C2)nc1
OBSERVABLE: AUC(0-t)
RESULT: 215 ng·h/mL
--
COMPOUND: COc1ccc([C@@H]2CN(C(=O)[C@@H](O)CO)C[C@@]2(C)[C@@H](C)O)cc1OC1CN(c2cc(Cl)c(C)cn2)C1
OBSERVABLE: AUC(0-t)
RESULT: 386 ng·h/mL
--
COMPOUND: COc1ccc([C@@H]2CN(C(=O)[C@@H](O)CO)C[C@@]2(C)[C@@H](C)O)cc1OC1CN(c2ccc(C)c(C)n2)C1
OBSERVABLE: AUC(0-t)
RESULT: 332 ng·h/mL
